- Test system: HeLa
- assay_explanation: Cytotoxicity against human HeLa cells
- Format: cell-based
For each of the compounds below, state its IC50.
Numbers only, in µM.

// known answers, use as guide
Prompt: In one line, give reported IC50 of the entry COc1cc(Cc2cnc(N)nc2N)cc(/C=C/C(=O)N2N=Cc3ccccc3C2c2cnc(N(C)C)nc2)c1OC (stereo not drawn) .
Response: 12

Prompt: In one line, give reported IC50 of the entry COc1cc(Cc2cnc(N)nc2N)cc(/C=C/C(=O)N2N=Cc3ccccc3C2c2cnc(N3CCOCC3)nc2)c1OC (stereo not drawn) .
Response: 12

Below: the item to evaluate.
Prompt: In one line, give reported IC50 of the entry COc1ncc(C2c3ccccc3C=NN2C(=O)/C=C/c2cc(Cc3cnc(N)nc3N)cc(OC)c2OC)cn1 (stereo not drawn) .
Response: 12

====

- assay_explanation: Oral bioavailability in NMRI mouse
- Format: ADME, organism-based
- stated_conditions: in vivo
property: bioavailability (%)
Numbers only, in %.

Prompt: In one line, give reported bioavailability of the entry COc1ncc(C2c3ccccc3C=NN2C(=O)/C=C/c2cc(Cc3cnc(N)nc3N)cc(OC)c2OC)cn1 (stereo not drawn) .
Response: 25

For each of the molecules below, state bioavailability.
1. COc1cc(Cc2cnc(N)nc2N)cc(/C=C/C(=O)N2N=Cc3ccccc3C2c2cnc(N3CCOCC3)nc2)c1OC (stereo not drawn)
2. COc1cc(Cc2cnc(N)nc2N)cc(/C=C/C(=O)N2N=Cc3ccccc3C2c2cnc(N(C)C)nc2)c1OC (stereo not drawn)

Response:
1: 29; 2: 26
